# Plant response rating, Kochia values compiled below
test system: kochia; assay: Test A pre-/postemergence herbicide test; type: in vivo, Kochia scoparia; settings: Postemergence, 500 g ai/ha; 0 to 100 scale (0 no effect, 100 complete control)
measurement_kind: Plant response rating, Kochia

>>> observed_value("O=C1NCC(c2cccc(Br)c2)C1C(=O)Nc1ccc(F)cc1F (centres unmarked)")
0
>>> observed_value("O=C1NCC(c2cc3ccccc3s2)C1C(=O)Nc1cccc(F)c1F (centres unmarked)")
0
>>> observed_value("O=C1NCC(c2cccc(C(F)(F)F)c2)C1C(=O)Nc1ccccc1Cl (centres unmarked)")
40
>>> observed_value("O=C1NCC(c2cccc(OC(F)F)c2)C1C(=O)Nc1ccc(F)c(F)c1F (centres unmarked)")
80
>>> observed_value("O=C1NCC(c2cccc(Oc3ccccc3)c2)C1C(=O)Nc1cccc(F)c1F (centres unmarked)")
20
>>> observed_value("O=C1NCC(c2cccc(Oc3ccccc3)c2)C1C(=O)Nc1ccccc1Cl (centres unmarked)")
0
>>> observed_value("O=C1NCC(c2cc3ccccc3o2)C1C(=O)Nc1cccc(F)c1F (centres unmarked)")
0
>>> observed_value("CN1CC(c2ccc(C(F)(F)F)cc2)C(C(=O)Nc2ccccc2F)C1=O (centres unmarked)")
80
>>> observed_value("O=C1NCC(c2cccc(Br)c2)C1C(=O)Nc1ccccc1F (centres unmarked)")
0
>>> observed_value("O=C1NCC(c2cccc(Oc3ccccc3)c2)C1C(=O)Nc1ccccc1F (centres unmarked)")
0
>>> observed_value("O=C1NCC(c2ccc(Cl)s2)C1C(=O)Nc1ccccc1C(F)(F)F (centres unmarked)")
0
>>> observed_value("O=C1NCC(c2cccc(I)c2)C1C(=O)Nc1ccccc1C(F)(F)F (centres unmarked)")
20
>>> observed_value("O=C1NCC(c2cc(F)cc(F)c2)C1C(=O)Nc1ccc(F)cc1F (racemic)")
0
>>> observed_value("CN1CC(c2ccc(F)cc2)C(C(=O)Nc2cccc(F)c2F)C1=O (centres unmarked)")
80
>>> observed_value("O=C1NCC(c2cccc(C(F)(F)F)c2)C1C(=O)Nc1cccc(Cl)c1F (centres unmarked)")
40
>>> observed_value("O=C1NCC(c2cccc(C(F)(F)F)c2)C1C(=O)Nc1cccc(C(F)(F)F)c1 (centres unmarked)")
0
>>> observed_value("COc1ccc(C2CNC(=O)C2C(=O)Nc2ccccc2C(F)(F)F)cc1C(F)(F)F (centres unmarked)")
0

----------
test system: wheat; experiment: Test A pre-/postemergence herbicide test; assay type: in vivo, Triticum aestivum; settings: Postemergence, 500 g ai/ha
measurement_kind: Wheat plant response rating (0 to 100 scale, 0 is no effect, 100 is complete control)

>>> observed_value("Cc1ccccc1NC(=O)C1C(=O)NCC1c1cccc(OC(F)F)c1 (stereo not shown)")
20
>>> observed_value("Cc1ccc(C2CNC(=O)C2C(=O)Nc2ccccc2Cl)cc1 (racemic)")
0
>>> observed_value("O=C1NCC(c2cccc(C(F)(F)F)c2)C1C(=O)Nc1ccc(F)cc1F (racemic)")
60
>>> observed_value("O=C1NCC(c2cccc(OC(F)F)c2)C1C(=O)Nc1ccccc1Cl (stereo not shown)")
0
>>> observed_value("CCc1cccc(C2CNC(=O)C2C(=O)Nc2ccc(F)c(F)c2F)c1 (racemic)")
50
>>> observed_value("O=C1NCC(c2ccc(C(F)(F)F)cc2)C1C(=O)Nc1ccc(F)c(F)c1F (stereo not shown)")
50
>>> observed_value("O=C1NCC(c2ccc(OC(F)F)cc2)C1C(=O)Nc1ccccc1Br (stereo not shown)")
20
>>> observed_value("O=C1NCC(c2cccc(C(F)(F)F)c2)C1C(=O)Nc1cccc(F)c1 (racemic)")
40
>>> observed_value("O=C1NCC(c2cccc(C(F)(F)F)c2)C1C(=O)Nc1nc(C(F)(F)F)co1 (racemic)")
20
>>> observed_value("COc1ccc(C2CNC(=O)C2C(=O)Nc2cccc(F)c2F)cc1C(F)(F)F (stereo not shown)")
40
>>> observed_value("O=C1NCC(c2ccc(F)cc2)C1C(=O)Nc1cccc(F)c1F (racemic)")
70
>>> observed_value("CC(C)(C)c1cccc(C2CNC(=O)C2C(=O)Nc2cccc(F)c2F)c1 (racemic)")
20
>>> observed_value("O=C1NCC(c2cccc(OC(F)(F)C(F)F)c2)C1C(=O)Nc1ccc(F)cc1F (racemic)")
60
>>> observed_value("COc1cc(C2CNC(=O)C2C(=O)Nc2ccccc2Cl)ccc1F (racemic)")
0
>>> observed_value("Cc1ccc(C2CNC(=O)C2C(=O)Nc2cccc(F)c2)cc1 (racemic)")
0
>>> observed_value("Cc1ccc(F)c(NC(=O)C2C(=O)NCC2c2cccc(C(F)(F)F)c2)c1 (racemic)")
0

----------
test system: pigweed; test: Test C pre-/postemergence herbicide test; type: in vivo, Amaranthus retroflexus; conditions: Postemergence, 125 g ai/ha; scale 0 to 100 (0 no effect, 100 complete control)
Excerpt: […]
Flag rule - Plant response rating, Pigweed less than 50 flags Criterion met; the remaining entries get Criterion not met.

>>> assigned_category("O=C1NCC(c2ccc(C(F)(F)F)cc2)C1C(=O)Nc1ccc(F)c(F)c1F (stereo not drawn)")
"Criterion not met"
>>> assigned_category("O=C1NCC(c2cccc(Cl)c2)C1C(=O)Nc1cccc(F)c1F (racemic)")
"Criterion met"
>>> assigned_category("O=C1NCC(c2cc(F)cc(F)c2)C1C(=O)Nc1ccc(F)cc1F (racemic)")
"Criterion met"
>>> assigned_category("O=C1NCC(c2ccccc2)C1C(=O)Nc1ccccc1F (racemic)")
"Criterion met"
>>> assigned_category("O=C1NCC(c2cccc(OC(F)F)c2)C1C(=O)Nc1cccc(F)c1F (stereo not drawn)")
"Criterion not met"

----------
Test system: rice
Assay: Test C flooded paddy test
Format: in vivo, Oryza sativa
Details: Flood; 1000 g ai/ha; scale 0 to 100
Source text: Plant species in the flooded paddy test consisted of rice (Oryza sativa), sedge, umbrella (small-flower umbrella sedge, Cyperus difformis), ducksalad (Heteranthera limosa), and barnyardgrass (Echinochloa crus-galli) grown to the 2-leaf stage for testing. […] Treated plants and controls were maintained in a greenhouse for 13 to 15 days, after which time all species were compared to controls and visually evaluated. […]
measurement_kind: Plant response rating, Rice

>>> observed_value("CC(C)(C)c1cccc(C2CNC(=O)C2C(=O)Nc2cccc(F)c2F)c1 (racemic) [Compound 200]")
0
>>> observed_value("O=C1NCC(c2cccc(C(F)(F)F)c2)C1C(=O)Nc1cccc(Cl)c1F (centres unmarked) [Compound 344]")
0
>>> observed_value("O=C1NC[C@@H](c2ccc(F)c(F)c2)[C@@H]1C(=O)Nc1ccccc1F [Compound 102]")
0
>>> observed_value("O=C1NCC(c2cccc(C(F)(F)F)c2)C1C(=O)Nc1cccc(F)c1 (racemic) [Compound 208]")
15
>>> observed_value("O=C1NCC(c2cccc(C(F)(F)F)c2)C1C(=O)Nc1nc(C(F)(F)F)co1 (racemic) [Compound 114]")
0

----------
# Plant response rating, Oilseed Rape values compiled below
test system: oilseed rape; assay: Test C pre-/postemergence herbicide test; type: in vivo, Brassica napus; details: Postemergence; 250 g ai/ha; scale 0 to 100 (0 no effect, 100 complete control)
measurement_kind: Plant response rating, Oilseed Rape

>>> observed_value("CN1CC(c2ccc(F)c(F)c2)C(C(=O)Nc2ccccc2F)C1=O (stereo not drawn)")
0
>>> observed_value("O=C1NCC(c2cc(F)cc(F)c2)C1C(=O)Nc1cccc(F)c1F (racemic)")
0
>>> observed_value("O=C1NCC(c2ccc(C(F)(F)F)cc2)C1C(=O)Nc1ccc(F)c(F)c1F (stereo not drawn)")
40
>>> observed_value("O=C1NCC(c2cccc(OC(F)F)c2)C1C(=O)Nc1ccccc1F (stereo not drawn)")
10
>>> observed_value("O=C1NCC(c2cccc(C(F)(F)F)c2)C1C(=O)Nc1ccc(F)c(F)c1F (stereo not drawn)")
10
>>> observed_value("O=C1NCC(c2cccc(Br)c2)C1C(=O)Nc1cccc(F)c1F (stereo not drawn)")
5

----------
test system: ragweed; assay: Test C pre-/postemergence herbicide test; assay type: in vivo, Ambrosia elatior; details: Postemergence, 31 g ai/ha; scale 0 to 100 (0 no effect, 100 complete control)
measurement_kind: Plant response rating, Ragweed

>>> observed_value("O=C1NCC(c2cccc(OC(F)F)c2)C1C(=O)Nc1ccc(F)c(F)c1F (centres unmarked)")
10
>>> observed_value("O=C1NCC(c2cccc(C(F)(F)F)c2)C1C(=O)Nc1ccc(F)c(F)c1F (centres unmarked)")
0
>>> observed_value("CN1CC(c2ccc(F)c(F)c2)C(C(=O)Nc2ccccc2F)C1=O (centres unmarked)")
10
>>> observed_value("O=C1NCC(c2cccc(OC(F)F)c2)C1C(=O)Nc1cccc(F)c1F (centres unmarked)")
5
>>> observed_value("CN1CC(c2cccc(C(F)(F)F)c2)C(C(=O)Nc2ccccc2F)C1=O (centres unmarked)")
40

----------
test system: blackgrass; assay: Test A postemergence herbicide test; type: in vivo, Alopecurus myosuroides; details: 500 g ai/ha
measurement_kind: Blackgrass plant response rating (0 to 100 scale, 0 is no effect, 100 is complete control)

>>> observed_value("COc1ccc(C2CNC(=O)C2C(=O)Nc2cccc(F)c2F)cc1C(F)(F)F (centres unmarked)")
30
>>> observed_value("Cc1ccccc1NC(=O)C1C(=O)NCC1c1cccc(OC(F)F)c1 (centres unmarked)")
50
>>> observed_value("Cc1ccc(C2CNC(=O)C2C(=O)Nc2cccc(F)c2)cc1 (racemic)")
30
>>> observed_value("O=C1NCC(c2ccc(C(F)(F)F)cc2)C1C(=O)Nc1ccccc1Cl (centres unmarked)")
60
>>> observed_value("O=C1NCC(c2ccc(OC(F)(F)C(F)F)cc2)C1C(=O)Nc1cccc(F)c1F (racemic)")
0
>>> observed_value("Cc1ccc(C2CNC(=O)C2C(=O)Nc2ccccc2F)cc1 (racemic)")
40
>>> observed_value("O=C1NCC(c2cccc(C(F)F)c2)C1C(=O)Nc1ccc(F)c(F)c1F (racemic)")
70
>>> observed_value("O=C1NCC(c2ccc(-c3ccccc3F)cc2)C1C(=O)Nc1cccc(F)c1F (centres unmarked)")
20
